- experimental.target: UniProt:P28222
- Sequence (P28222 whole entry): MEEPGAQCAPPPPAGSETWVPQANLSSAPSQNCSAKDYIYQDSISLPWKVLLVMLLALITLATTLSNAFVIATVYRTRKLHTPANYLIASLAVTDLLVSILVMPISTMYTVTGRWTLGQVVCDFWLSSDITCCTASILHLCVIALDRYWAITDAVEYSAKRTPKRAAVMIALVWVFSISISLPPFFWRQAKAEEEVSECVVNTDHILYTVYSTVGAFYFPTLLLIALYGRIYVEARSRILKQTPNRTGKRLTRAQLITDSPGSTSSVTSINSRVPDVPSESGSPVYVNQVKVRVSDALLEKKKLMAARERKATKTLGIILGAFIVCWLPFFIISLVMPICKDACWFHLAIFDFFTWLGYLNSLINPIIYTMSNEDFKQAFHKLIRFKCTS
assay.readout: pKi
Answer as the number alone; pKi is minus log10 of concentration in mol/L.

Request: What pKi value was documented for this molecule, CC(C)Oc1ccccc1N1CCN(Cc2cccc(C(=O)N3CCCCC3)c2)CC1 [MAZAPERTINE] ?
Result: 5.54

---

- experimental.target: Alpha-1A adrenergic receptor (Homo sapiens)
- Sequence (P35348 whole entry): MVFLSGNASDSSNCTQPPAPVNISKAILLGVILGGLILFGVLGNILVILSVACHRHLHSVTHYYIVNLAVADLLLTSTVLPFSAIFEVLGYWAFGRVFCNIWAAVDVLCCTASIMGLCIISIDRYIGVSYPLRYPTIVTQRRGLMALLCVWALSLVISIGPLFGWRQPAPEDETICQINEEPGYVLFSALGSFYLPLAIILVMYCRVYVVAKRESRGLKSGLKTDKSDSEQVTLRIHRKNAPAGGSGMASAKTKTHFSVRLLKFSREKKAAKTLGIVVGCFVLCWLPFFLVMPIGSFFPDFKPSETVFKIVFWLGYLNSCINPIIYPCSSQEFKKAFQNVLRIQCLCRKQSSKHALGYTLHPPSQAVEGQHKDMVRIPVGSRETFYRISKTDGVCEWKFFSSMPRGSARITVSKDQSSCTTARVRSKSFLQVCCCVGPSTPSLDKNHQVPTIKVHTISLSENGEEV
assay.readout: Ki (nM)
Give your result in nM as a bare value.

Request: Give recorded Ki with Alpha-1A adrenergic receptor (Homo sapiens) for the following compound: `CC(C)Oc1ccccc1N1CCN(Cc2cccc(C(=O)N3CCCCC3)c2)CC1`
Result: 0.02

---

- experimental.target: Alpha-1A adrenergic receptor (Oryctolagus cuniculus)
- Sequence (O02824 whole entry): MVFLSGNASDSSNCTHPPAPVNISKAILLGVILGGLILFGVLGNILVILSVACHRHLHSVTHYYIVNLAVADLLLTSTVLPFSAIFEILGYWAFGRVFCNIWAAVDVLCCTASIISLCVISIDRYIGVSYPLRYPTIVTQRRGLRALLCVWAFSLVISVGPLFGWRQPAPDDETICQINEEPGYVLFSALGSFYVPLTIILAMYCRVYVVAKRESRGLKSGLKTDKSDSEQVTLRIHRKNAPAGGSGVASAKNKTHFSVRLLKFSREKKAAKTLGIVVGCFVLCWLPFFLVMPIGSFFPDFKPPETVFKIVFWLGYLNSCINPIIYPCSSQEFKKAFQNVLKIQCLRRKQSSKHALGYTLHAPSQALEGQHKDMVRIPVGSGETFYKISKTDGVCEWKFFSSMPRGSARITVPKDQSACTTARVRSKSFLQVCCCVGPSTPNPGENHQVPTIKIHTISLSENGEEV
- protocol.description: Agonist activity at rabbit urethra adrenergic alpha1A receptor
assay.readout: pEC50
// returns pEC50 (minus log10 of molar concentration), number only

Request: Consider the compound shown here: `CCS(=O)(=O)Nc1cccc(Cc2c[nH]cn2)c1` What is its recorded pEC50?
Result: 7.22

---

- protocol.description: Binding affinity to human cloned dopamine D4.2 receptor
assay.readout: Ki

Request: For `Nc1nc(-c2ccc(F)cc2)c([C@@H]2CCN(CCCC(=O)c3ccc(F)cc3)C2)s1` , what is its reported Ki?
Result: 2.54 nM

---

Target sequence: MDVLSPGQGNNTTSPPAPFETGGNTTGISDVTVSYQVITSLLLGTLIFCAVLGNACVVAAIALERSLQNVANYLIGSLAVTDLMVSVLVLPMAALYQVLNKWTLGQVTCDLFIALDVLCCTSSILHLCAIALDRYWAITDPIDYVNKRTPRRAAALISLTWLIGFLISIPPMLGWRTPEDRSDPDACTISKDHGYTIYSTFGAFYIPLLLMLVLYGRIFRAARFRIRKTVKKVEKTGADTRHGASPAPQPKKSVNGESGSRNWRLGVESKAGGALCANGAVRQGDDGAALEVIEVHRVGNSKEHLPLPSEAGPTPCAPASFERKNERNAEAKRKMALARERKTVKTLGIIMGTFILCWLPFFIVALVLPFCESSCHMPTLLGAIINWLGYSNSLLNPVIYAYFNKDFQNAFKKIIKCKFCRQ
assay.readout: Ki

Request: Need Ki, item `CC(C)Oc1ccccc1N1CCN(Cc2cccc(C(=O)N3CCCCC3)c2)CC1`
Result: < 4 nM
